Data provenance: ChEMBL document CHEMBL1201862

tested on: UACC-257; assay: NCI tumour cell line growth inhibition, 48 h
Calls of active or inactive are those of the source. Cut-off read from the data, not from the text of the source: active = GI50 up to about 1.1 µM and inactive = higher.
quantity-name: GI50

INSERT INTO measurements (compound, assayed_target, value_measured) VALUES
  ('CNC(=S)Nc1ccc(OC)c2ccccc12', 'UACC-257', '> 10 µM (inactive)'),
  ('C/C(CC(=O)NCCc1ccccc1)=N\NC(=O)C[n+]1ccccc1', 'UACC-257', '> 100 µM (inactive)'),
  ('CC(=O)NC(Cc1ccsc1)C(=O)O (stereo unspecified)', 'UACC-257', '> 100 µM (inactive)'),
  ('Cn1c(=O)c2c(nc3sc4nc5ccccc5nc4n32)n(C)c1=O', 'UACC-257', '> 100 µM (inactive)'),
  ('CC1=C/C(=C2/N=C(N(C)C)SS2)C(C)=N1.[O-][Cl+3]([O-])([O-])O', 'UACC-257', '> 100 µM (inactive)'),
  ('O=[N+]([O-])c1ccc(-c2cc(O)c3nc4ccccc4n3c2)cc1', 'UACC-257', '> 100 µM (inactive)'),
  ('O=C1Nc2ccc(Cl)cc2C(=O)N2CCC[C@@H]12', 'UACC-257', '> 100 µM (inactive)'),
  ('COc1ccc(-c2nnc3nc4ccccc4n3c2O)cc1', 'UACC-257', '> 100 µM (inactive)'),
  ('Nc1ccccc1C(=O)/C=C/c1ccccc1O', 'UACC-257', '15.1 µM (inactive)'),
  ('COC1C(O)C(C)OC(O[C@H]2CC[C@@]3(C)C(CC[C@@H]4[C@@H]3CC[C@]3(C)[C@@H](C(C)OC5OC(CO)C(O)C(O)C5O)CC[C@]43O)C2)C1O (stereo partly specified)', 'UACC-257', '> 25 µM (inactive)'),
  ('COc1ccc(Nc2ccc3ccccc3c2-c2c(O)ccc3ccccc23)cc1', 'UACC-257', '22.1 µM (inactive)');

----------
The compounds listed here are annotated with their GI50.
tested on: K562; assay: NCI tumour cell line growth inhibition, 48 h
The source made the active and inactive calls. Rule as the data show it: active = GI50 up to about 1.1 µM and inactive = higher.
quantity-name: GI50

INSERT INTO assay_data (compound, value_measured) VALUES
  ('O=C1Nc2ccc(Cl)cc2C(=O)N2CCC[C@@H]12', '> 100 µM (inactive)'),
  ('COc1cc(N(CCC#N)CCC#N)ccc1C(/N=N/c1cccc([N+](=O)[O-])c1)=N\NC(=O)c1ccc(C)cc1', '73.5 µM (inactive)'),
  ('Cn1c2ccccc2c(=O)c2c(O)cc3c(c21)C1OCC(C)(O)C1O3 (stereo not given)', '53.3 µM (inactive)'),
  ('COc1cc(=O)oc(/C=C/CO)c1C', '> 100 µM (inactive)'),
  ('O=C(/C=C/c1ccc(O)c(O)c1)O[C@H]1CCCC[C@@H]1OC(=O)/C=C/c1ccc(O)c(O)c1', '7.57 µM (inactive)'),
  ('O=S(=O)(/C=C/C=C/S(=O)(=O)c1ccccc1)c1ccccc1', '0.269 µM (active)'),
  ('COc1ccc(-c2cc(O)c3cc(OC)ccc3n2)cc1', '> 100 µM (inactive)'),
  ('OC1NC2Nc3ccccc3NC2NC1O (stereo not given)', '> 100 µM (inactive)'),
  ('O=C1NCCS(=O)(=O)N2CCC[C@@H]12', '> 100 µM (inactive)'),
  ('N#Cc1ccc(/C=N/NC(=O)CSCC(=O)N/N=C/c2ccc(C#N)cc2)cc1', '> 100 µM (inactive)'),
  ('COC(=O)[C@H](C)NC(=O)[C@H](CSC)N1C(=O)N[C@@H](C(C)C)C1=O', '85.5 µM (inactive)'),
  ('CCN(CC)C(=S)SS(=O)(=O)c1ccccc1C(=O)O', '> 100 µM (inactive)'),
  ('O=C(O)C1C2C=CC(C2)C1c1ccccc1 (stereo not given)', '> 100 µM (inactive)'),
  ('CC(=O)NC(CCCNCc1ccccc1)C(=O)NCc1ccccc1 (stereo not given)', '> 100 µM (inactive)'),
  ('O=C1CC(=O)N(c2ccccc2)N1/C(=C/c1ccccc1)c1ccccc1', '1.54 µM (inactive)');

----------
system: K562; experiment: NCI tumour cell line growth inhibition, 48 h
Calls of active or inactive are those of the source. Rule as the data show it: active = GI50 up to about 1.1 µM and inactive = higher.
The molecules listed here are annotated with their GI50.
quantity-name: GI50

INSERT INTO measurements (molecule, quantity_name, value_measured) VALUES
  ('O=c1cc(-c2ccccc2)[nH]c2c(Cl)cccc12', 'GI50', '2.77 µM (inactive)'),
  ('CCC(C)C1=C(O)[N+]2([O-])Oc3ccc(-c4c(O)c(O)c(-c5ccc(O)cc5)c(OC(C)=O)c4OC(C)=O)cc3OC2(C(C)CC)C(=O)N1O (configuration not stated)', 'GI50', '35.4 µM (inactive)'),
  ('COC(=O)c1ccccc1C#CCCCOS(C)(=O)=O', 'GI50', '> 10 µM (inactive)'),
  ('CC12C/C(=C\c3ccccc3)C(=O)C3C1CCCC32', 'GI50', '38.6 µM (inactive)'),
  ('COCCNC(=O)C1C(=O)C(=O)N(CCOC)C1=O (configuration not stated)', 'GI50', '> 100 µM (inactive)'),
  ('O=C(CC/C(CC(=O)c1ccc(Br)cc1)=N\O)Nc1ccc(Cl)c(Cl)c1', 'GI50', '25.4 µM (inactive)'),
  ('COc1ccc2nc3cc(Cl)ccc3c(Sc3ccccc3[N+](=O)[O-])c2c1', 'GI50', '> 100 µM (inactive)'),
  ('COc1ccc2oc(=O)c(-c3csc(C)n3)cc2c1', 'GI50', '> 100 µM (inactive)'),
  ('CCN1C(=O)/C(=C\c2coc3ccccc3c2=O)SC1=S', 'GI50', '> 100 µM (inactive)'),
  ('Cc1ccc(S(=O)(=O)n2c(-c3ccccc3)c(-c3ccccc3)c3ccccc32)cc1', 'GI50', '64.9 µM (inactive)'),
  ('CC(C)(C)c1c(C(C)(C)C)c(=O)c1=O', 'GI50', '> 100 µM (inactive)'),
  ('CCN1CCCC(Nc2cc(C)nc(NC(=N)Nc3ccc(Cl)c(Cl)c3)n2)C1 (configuration not stated)', 'GI50', '0.217 µM (active)'),
  ('Cc1ccc(N(O)C(C)(C)C)cc1', 'GI50', '> 100 µM (inactive)'),
  ('C=C1C(=O)O[C@H]2[C@H]1[C@H](OC(=O)/C(C)=C\C)CC(=C)[C@@H]1[C@H](O)[C@H]3O[C@@]3(C)[C@@]12O', 'GI50', '> 100 µM (inactive)'),
  ('Oc1c(N2CCCCC2)cc(-c2cc(N3CCCCC3)c(O)c3ccccc23)c2ccccc12', 'GI50', '71.9 µM (inactive)'),
  ('O=C(COc1ccc(OCC(=O)N2C(=O)CN(c3ccccc3)C2=S)cc1)N1C(=O)CN(c2ccccc2)C1=S', 'GI50', '> 100 µM (inactive)'),
  ('CS(=O)(=O)OCCCCOS(=O)(=O)CF', 'GI50', '> 100 µM (inactive)'),
  ('O=C1c2ccccc2C(=O)c2[nH]cnc21', 'GI50', '78.7 µM (inactive)'),
  ('COc1ccc2c(c1)C(=O)c1ccc(OC)cc1C2=S', 'GI50', '> 100 µM (inactive)'),
  ('CN(C)CN(C)c1nc(N(C)C)nc(N(C)C)n1', 'GI50', '> 100 µM (inactive)'),
  ('O=C1c2ccccc2C(=O)c2c(Nc3ccc4c5c(cccc35)C(=O)c3ccccc3-4)cccc21', 'GI50', '> 100 µM (inactive)'),
  ('CC1(O)/C(=N/O)CC2CC1C2(C)C (configuration not stated)', 'GI50', '> 100 µM (inactive)'),
  ('C=CCOc1ccc(C2C(C(=O)OCC)C(=O)CC(C)(O)C2C(=O)OCC)cc1OC (configuration not stated)', 'GI50', '> 100 µM (inactive)'),
  ('CCN(CC)CCNc1c(OC)cc(C)c2sc3ccccc3c(=O)c12', 'GI50', '1.71 µM (inactive)'),
  ('Cc1cc(NS(=O)(=O)c2ccc(NC(=O)c3ccc4nc5ccccc5c(Nc5ccc(S(=O)(=O)N=C(N)N)cc5)c4c3)cc2)no1', 'GI50', '10.6 µM (inactive)'),
  ('COc1ccc(C#CC(=O)O)c(OC)c1', 'GI50', '> 100 µM (inactive)'),
  ('C=CC(=O)Nc1ccc(NC(=O)C=C)c2c1C(=O)c1ccccc1C2=O', 'GI50', '15.7 µM (inactive)'),
  ('COC(=O)C12C3C4C5(C(=O)OC)C(C1C35C(=O)N(C(C)C)C(C)C)C42C(=O)N(C(C)C)C(C)C (configuration not stated)', 'GI50', '> 47.4 µM (inactive)'),
  ('N=C(N)N/N=C(\c1ccc(F)cc1)c1ccc(C(F)(F)F)cc1', 'GI50', '0.132 µM (active)'),
  ('C=CCOCCCC(=O)C(=[N+]=[N-])C(=O)OC', 'GI50', '> 100 µM (inactive)'),
  ('N/C(=N\c1ccc(Cl)cc1)NS(=O)(=O)c1c(C(F)(F)F)cccc1C(F)(F)F', 'GI50', '> 100 µM (inactive)'),
  ('Cc1cc(-c2ccccc2)nc(Nc2nc3ccccc3o2)n1', 'GI50', '> 100 µM (inactive)');
